B1: DnaJ homolog subfamily C member 2, residues 451 to 503; numbered along this chain, Q99543 (parent)
chain: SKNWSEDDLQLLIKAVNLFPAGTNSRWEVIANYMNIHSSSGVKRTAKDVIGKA

# Variants of: B1
# assay-overview: abundance fitness (aPCA) (normalised: wild type 0, dead -1); higher = more abundant; growth selection in yeast, the domain comes from the species named
# stated-conditions: Homo sapiens

[
  {
    "variant-identifier": "A46F",
    "abundance fitness": -0.366
  },
  {
    "variant-identifier": "L9P",
    "abundance fitness": -0.724
  },
  {
    "variant-identifier": "K47L",
    "abundance fitness": -0.097
  },
  {
    "variant-identifier": "G41T",
    "abundance fitness": -0.072
  },
  {
    "variant-identifier": "Y33T",
    "abundance fitness": -0.915
  },
  {
    "variant-identifier": "K14P",
    "abundance fitness": -0.971
  },
  {
    "variant-identifier": "N24R",
    "abundance fitness": -0.045
  },
  {
    "variant-identifier": "K2A",
    "abundance fitness": -0.259
  },
  {
    "variant-identifier": "K2S",
    "abundance fitness": -0.059
  },
  {
    "variant-identifier": "I36H",
    "abundance fitness": -0.135
  },
  {
    "variant-identifier": "K47C",
    "abundance fitness": -0.206
  },
  {
    "variant-identifier": "K47W",
    "abundance fitness": -0.266
  },
  {
    "variant-identifier": "L18H",
    "abundance fitness": -0.272
  },
  {
    "variant-identifier": "D48Y",
    "abundance fitness": -1.04
  },
  {
    "variant-identifier": "E28P",
    "abundance fitness": -0.627
  },
  {
    "variant-identifier": "L12Q",
    "abundance fitness": -0.894
  },
  {
    "variant-identifier": "N17H",
    "abundance fitness": -0.158
  },
  {
    "variant-identifier": "T23V",
    "abundance fitness": -0.302
  },
  {
    "variant-identifier": "L9G",
    "abundance fitness": -0.143
  },
  {
    "variant-identifier": "L11M",
    "abundance fitness": -0.229
  },
  {
    "variant-identifier": "S1C",
    "abundance fitness": -0.261
  },
  {
    "variant-identifier": "F19Y",
    "abundance fitness": -0.178
  },
  {
    "variant-identifier": "L11F",
    "abundance fitness": -0.382
  },
  {
    "variant-identifier": "I36K",
    "abundance fitness": 0.208
  },
  {
    "variant-identifier": "L18F",
    "abundance fitness": -0.219
  },
  {
    "variant-identifier": "K14G",
    "abundance fitness": -0.243
  },
  {
    "variant-identifier": "S40Q",
    "abundance fitness": -0.158
  },
  {
    "variant-identifier": "A31R",
    "abundance fitness": -0.384
  },
  {
    "variant-identifier": "A21G",
    "abundance fitness": -0.122
  },
  {
    "variant-identifier": "N24E",
    "abundance fitness": 0.07
  },
  {
    "variant-identifier": "A15L",
    "abundance fitness": -0.61
  },
  {
    "variant-identifier": "M34R",
    "abundance fitness": -0.963
  },
  {
    "variant-identifier": "K52W",
    "abundance fitness": -0.018
  },
  {
    "variant-identifier": "L9V",
    "abundance fitness": -0.082
  },
  {
    "variant-identifier": "A31S",
    "abundance fitness": -0.179
  },
  {
    "variant-identifier": "S38A",
    "abundance fitness": -0.224
  },
  {
    "variant-identifier": "S39Y",
    "abundance fitness": -0.339
  },
  {
    "variant-identifier": "D8Y",
    "abundance fitness": -0.712
  },
  {
    "variant-identifier": "W27I",
    "abundance fitness": -0.286
  },
  {
    "variant-identifier": "N3W",
    "abundance fitness": -0.491
  },
  {
    "variant-identifier": "W4S",
    "abundance fitness": -0.599
  },
  {
    "variant-identifier": "T23C",
    "abundance fitness": -0.353
  },
  {
    "variant-identifier": "F19Q",
    "abundance fitness": -0.86
  },
  {
    "variant-identifier": "A21H",
    "abundance fitness": 0.083
  },
  {
    "variant-identifier": "A46H",
    "abundance fitness": -0.309
  },
  {
    "variant-identifier": "A15W",
    "abundance fitness": -0.682
  },
  {
    "variant-identifier": "G41A",
    "abundance fitness": 0.089
  },
  {
    "variant-identifier": "S1W",
    "abundance fitness": -0.721
  },
  {
    "variant-identifier": "S38L",
    "abundance fitness": -0.86
  },
  {
    "variant-identifier": "Q10M",
    "abundance fitness": -0.34
  },
  {
    "variant-identifier": "V16Y",
    "abundance fitness": -0.028
  },
  {
    "variant-identifier": "I36G",
    "abundance fitness": -0.009
  },
  {
    "variant-identifier": "L11P",
    "abundance fitness": -0.891
  },
  {
    "variant-identifier": "R26A",
    "abundance fitness": -0.557
  },
  {
    "variant-identifier": "K14H",
    "abundance fitness": -0.05
  },
  {
    "variant-identifier": "I36C",
    "abundance fitness": 0.043
  },
  {
    "variant-identifier": "L18I",
    "abundance fitness": -0.073
  },
  {
    "variant-identifier": "W4Y",
    "abundance fitness": -0.341
  },
  {
    "variant-identifier": "F19M",
    "abundance fitness": -0.572
  },
  {
    "variant-identifier": "R26G",
    "abundance fitness": -0.74
  },
  {
    "variant-identifier": "M34Q",
    "abundance fitness": -0.696
  },
  {
    "variant-identifier": "A46C",
    "abundance fitness": -0.094
  },
  {
    "variant-identifier": "M34C",
    "abundance fitness": -0.136
  },
  {
    "variant-identifier": "I50L",
    "abundance fitness": -0.06
  },
  {
    "variant-identifier": "I30K",
    "abundance fitness": -0.873
  },
  {
    "variant-identifier": "A21V",
    "abundance fitness": -0.142
  },
  {
    "variant-identifier": "F19V",
    "abundance fitness": -0.102
  },
  {
    "variant-identifier": "K43C",
    "abundance fitness": -0.06
  },
  {
    "variant-identifier": "L11K",
    "abundance fitness": -0.747
  },
  {
    "variant-identifier": "N17L",
    "abundance fitness": -0.216
  },
  {
    "variant-identifier": "I13G",
    "abundance fitness": 0.099
  },
  {
    "variant-identifier": "G41H",
    "abundance fitness": -0.129
  },
  {
    "variant-identifier": "A53R",
    "abundance fitness": -0.498
  },
  {
    "variant-identifier": "S38F",
    "abundance fitness": -0.822
  },
  {
    "variant-identifier": "S38T",
    "abundance fitness": -0.116
  },
  {
    "variant-identifier": "D8M",
    "abundance fitness": -0.844
  },
  {
    "variant-identifier": "Q10V",
    "abundance fitness": -0.206
  },
  {
    "variant-identifier": "G22P",
    "abundance fitness": -0.217
  },
  {
    "variant-identifier": "K14V",
    "abundance fitness": -0.196
  },
  {
    "variant-identifier": "A53C",
    "abundance fitness": -0.188
  },
  {
    "variant-identifier": "I30P",
    "abundance fitness": -0.94
  },
  {
    "variant-identifier": "K14N",
    "abundance fitness": -0.274
  },
  {
    "variant-identifier": "I13C",
    "abundance fitness": -0.147
  },
  {
    "variant-identifier": "G41P",
    "abundance fitness": -0.114
  },
  {
    "variant-identifier": "W27L",
    "abundance fitness": -0.597
  },
  {
    "variant-identifier": "D48W",
    "abundance fitness": -0.845
  },
  {
    "variant-identifier": "G51E",
    "abundance fitness": 0.016
  },
  {
    "variant-identifier": "W27G",
    "abundance fitness": -0.138
  },
  {
    "variant-identifier": "N32A",
    "abundance fitness": -0.04
  },
  {
    "variant-identifier": "G22H",
    "abundance fitness": -0.166
  },
  {
    "variant-identifier": "G22S",
    "abundance fitness": 0.002
  }
]
